The measured values listed here are drawn from PubChem BioAssay (EPA / NIEHS).

Read-out: Plasminogen activator inhibitor-1 (PAI1), SERPINE1 (gene 5054)
Experiment: BSK_hDFCGF_PAI1: BioMAP Diversity Plus: hDFCGF Assay for Plasminogen activator inhibitor-1 (PAI1) Biomarker Activity (AID 2283066)
Conditions: primary human foreskin fibroblasts; actives raise or lower the signal
Calls of active or inactive are those of the source. The calls were made as follows: active = hit-call score of the fitted dose curve at least 0.9, where 1 is the maximum; inactive = score below 0.9.
endpoint name: AC50

Recorded AC50, per entry:
Sample Cc1cc(Cl)ccc1N ; AC50 observed: inactive

Sample Cc1cccc(OP(=O)(Oc2cccc(C)c2)Oc2cccc(C)c2)c1 ; AC50 observed: 0.0473 µM (active)

Sample c1ccc(-c2cccc(-c3ccccc3)c2)cc1 ; AC50 observed: 20 µM (active)

Sample Cc1ccccc1OP(=O)(Oc1ccccc1C)Oc1ccccc1C ; AC50 observed: 6.03 µM (active)

Sample O=C(O)COc1cc(Cl)c(Cl)cc1Cl ; AC50 observed: inactive

Others:
Sample Clc1cccc(Cl)c1Cl ; AC50 observed: inactive

Sample NC(=O)CCl ; AC50 observed: inactive

Sample O=C(CCl)NCO ; AC50 observed: inactive

Sample OC(Cc1ccccc1Cl)(Cn1[nH]cnc1=S)C1(Cl)CC1 (stereo unspecified) ; AC50 observed: inactive

Sample Cc1cc(Cl)ccc1OC(C)C(=O)O (stereo unspecified) ; AC50 observed: inactive

Sample OC(Cc1ccccc1Cl)(Cn1cncn1)C1(Cl)CC1 (stereo unspecified) ; AC50 observed: inactive

====

Assay: ATG_AP_1_CIS: Attagene CIS-FACTORIAL HepG2 Assay for human Activator Protein 1 (AP-1) (AID 2282931)
Conditions: HepG2 Attagene cis-factorial AP-1 reporter mRNA; actives raise or lower the signal
Description: ATG_CIS is a cell-based, multiplexed-readout assay that uses HepG2, a human liver cell line, with measurements taken at 24 hours after chemical dosing in a 24-well plate.ATG_AP_1_CIS is one of 52 assay component(s) measured or calculated from the ATG_CIS assay. […] This assay endpoint, ATG_AP_1_CIS, was analyzed with bidirectional fitting relative to DMSO as the negative control and baseline of activity. […]
Active and inactive are the calls of the source. How the source made its calls: active means hit-call score of the fitted dose curve at least 0.9, where 1 is the maximum; inactive means score below 0.9.
Hi! Could you answer with just one of these? active, inactive

Recorded test call requested for CCN(CCO)CCO inactive

Recorded test call requested for CC(C)[C@@H](Nc1ccc(C(F)(F)F)cc1Cl)C(=O)OC(C#N)c1cccc(Oc2ccccc2)c1 (some centres undefined) inactive

Recorded test call requested for N#CCC#N inactive

Recorded test call requested for O=[N+]([O-])c1ccccc1O inactive

Recorded test call requested for O=C1c2ccccc2C(=O)C1C(=O)C(c1ccccc1)c1ccc(Cl)cc1 (centres undefined) active

Recorded test call requested for CC(c1ccccc1)(c1ccc(O)cc1)c1ccc(O)cc1 active

Recorded test call requested for O=C(CBr)c1ccc(O)cc1 inactive

Recorded test call requested for CCOC(=O)C(SP(=S)(OC)OC)c1ccccc1 (centres undefined) inactive

Recorded test call requested for Cc1cccc(N=Nc2ccc(N(C)C)cc2)c1 inactive

Recorded test call requested for c1ccc2c(c1)Oc1ccccc1O2 inactive

Recorded test call requested for Nc1ccc(Br)cc1 inactive

Recorded test call requested for Oc1cccc(-c2ccccc2)c1 active

Recorded test call requested for Clc1cc(C(Cl)(Cl)Cl)cnc1Cl active

Recorded test call requested for C=CC(=O)NC(C)(C)CC(C)=O inactive

Recorded test call requested for CN(C)[C@@H]1C(=O)C(C(N)=O)=C(O)[C@@]2(O)C(=O)C3=C(O)c4c(O)ccc(Cl)c4[C@@](C)(O)[C@H]3C[C@@H]12 active

Recorded test call requested for CCCCCCCCCCCCN(C)C inactive

Recorded test call requested for CC(=Cc1ccccc1)[N+](=O)[O-] active

Recorded test call requested for CC(=O)CN(CC(C)=O)N=O inactive

Recorded test call requested for Cc1cc(-c2cc(C)c(N)c(C)c2)cc(C)c1N inactive

Recorded test call requested for c1cc[c]([Sb]([c]2ccccc2)[c]2ccccc2)cc1 active

Recorded test call requested for O=NN1CCCCCC1 inactive

Recorded test call requested for CNC(=O)O/N=C/C(C)(C)S(C)(=O)=O inactive

Recorded test call requested for C#C[C@]1(O)CC[C@H]2[C@@H]3CCC4=CC(=O)CC[C@]4(C)[C@H]3CC[C@@]21C inactive

Recorded test call requested for CCOc1ccc(N)cc1 inactive

Recorded test call requested for COP(=S)(OC)Oc1cc(Cl)c(I)cc1Cl inactive

Recorded test call requested for O=S(=O)(Oc1ccc(Cl)cc1)c1ccc(Cl)cc1 active

Recorded test call requested for O=NN1CCOCC1 inactive

Recorded test call requested for CCCCC(CC)C(=O)Cl (centres undefined) inactive

Recorded test call requested for O=C(NC(=O)c1c(F)cccc1F)Nc1ccc(Cl)cc1 inactive

Recorded test call requested for N#Cc1ccccc1Cl inactive

Recorded test call requested for Clc1ccc(C(Cl)(Cl)Cl)cn1 inactive

Recorded test call requested for Cc1ccccc1OP(=O)(Oc1ccccc1C)Oc1ccccc1C active

Recorded test call requested for C[C@@H]1O[C@@H](O[C@H]2C[C@@H](O)[C@]3(CO)[C@H]4[C@H](O)C[C@]5(C)[C@@H](C6=CC(=O)OC6)CC[C@]5(O)[C@@H]4CC[C@]3(O)C2)[C@H](O)[C@H](O)[C@H]1O active

Recorded test call requested for C1CN2CCN1CC2 inactive

Recorded test call requested for CN(N=O)c1ccc([N+](=O)[O-])cc1 inactive

Recorded test call requested for CCOCn1c(-c2ccc(Cl)cc2)c(C#N)c(Br)c1C(F)(F)F inactive

Recorded test call requested for CCOP(=S)(OCC)SCS(=O)(=O)C(C)(C)C inactive

Recorded test call requested for [F][Sn]([c]1ccccc1)([c]1ccccc1)[c]1ccccc1 inactive

Recorded test call requested for O=C/C(Cl)=C(/Cl)C(=O)O inactive
